Exercise: state measured EC50 for each of the compounds provided.
Target: Recombinant human liver GK (Homo sapiens, UniProt P35557)
Sequence (P35557 1-466 isoform P35557-2): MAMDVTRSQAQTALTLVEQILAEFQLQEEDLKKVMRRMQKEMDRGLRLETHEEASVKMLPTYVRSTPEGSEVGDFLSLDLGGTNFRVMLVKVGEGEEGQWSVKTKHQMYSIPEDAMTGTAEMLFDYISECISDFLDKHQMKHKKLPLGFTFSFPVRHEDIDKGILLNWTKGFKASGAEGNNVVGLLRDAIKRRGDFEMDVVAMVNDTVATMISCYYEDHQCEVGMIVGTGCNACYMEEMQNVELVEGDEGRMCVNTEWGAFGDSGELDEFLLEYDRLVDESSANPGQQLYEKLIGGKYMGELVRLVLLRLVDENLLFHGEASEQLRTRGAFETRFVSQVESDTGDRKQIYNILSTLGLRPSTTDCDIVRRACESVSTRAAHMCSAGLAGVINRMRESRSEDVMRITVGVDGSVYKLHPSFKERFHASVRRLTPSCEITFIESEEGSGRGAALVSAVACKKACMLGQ
Experiment: Glucokinase activating action (G6PDH-coupled thio-NADH absorbance assay)
Conditions: GK activating ability; final glucose concentration 2.5 mM; 30° C.
One number for each entry, in nM.

Solved entries:
* FCC(CF)Oc1ccc2ncnc(Nc3nc4cccnc4s3)c2c1 | 80
* c1cnc2sc(Nc3ncnc4ccc(Sc5nnc[nH]5)cc34)nc2c1 | 180

As a next step, examine the compound that follows.
# lookup: EC50 of c1cnc2sc(Nc3ncnc4ccc(Sc5nnc[nH]5)nc34)nc2c1
90
